system: DeltatarO mutant; experiment: S. aureus survival, RN4220 and DeltatarO strains – OD600, teichoic acid synthesis inhibitors, primary screen (AID 463173); details: S. aureus RN4220 wild type/DeltatarO growth, OD600, 18 h, hits give low values, screened at 18.75 µg/mL (by protocol)
Among all 52,000 compounds or so, about 4,300 (8.3%) were called active. This is one part of a sample in which actives are shown more often than they occur.
Some compounds, each annotated with its measured survival.
// note: answer is a bare numeric in %

Query: Which measured survival value corresponds to `CCOC(=O)c1cc(S(=O)(=O)Nc2ccc(OC)c(Cl)c2)[nH]n1` ?
Response: -4

Query: Which measured survival value corresponds to `CCOC(=O)c1cc(S(=O)(=O)Nc2cc(C)c(Cl)cc2OC)[nH]n1` ?
Response: 77

The reported numbers originate from PubChem BioAssay AID463173.
